target: IL-17A : IL-17RA binding (Homo sapiens, UniProt Q16552, K93Q); construct: Name: IL-17A-Flag; assay: IL-17A(FLAG-tagged):IL-17RA(His-tagged) binding disruption Eu-HTRF assay, Protocol 1; conditions: FLAG-IL-17A 2.5 nM at 2x final concentration; average if tested more than once
Sequence (Q16552 with tags, fused parts or gaps K93Q): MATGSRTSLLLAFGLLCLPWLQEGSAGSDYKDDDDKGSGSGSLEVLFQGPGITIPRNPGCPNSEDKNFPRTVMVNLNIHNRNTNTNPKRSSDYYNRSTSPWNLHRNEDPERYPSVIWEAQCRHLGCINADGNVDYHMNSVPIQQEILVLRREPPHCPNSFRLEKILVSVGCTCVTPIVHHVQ
pIC50: −log10 of the molar value.
outcome_measure: pIC50

Reference set (4 entries):
compound	target_under_test	outcome_measure	observed_measurement
C[C@@H](NC(=O)CCC(F)(F)F)c1ccc2[nH]c([C@@H](NC(=O)c3cnn(CC(F)F)n3)C3CCC(F)(F)CC3)nc2c1 [Example 37]	IL-17A : IL-17RA binding (Homo sapiens, UniProt Q16552, K93Q)	pIC50	< 7.00
Cc1nonc1C(=O)N[C@H](c1nc2cc([C@@H](NC(=O)CC3CC(F)(F)C3)C3CC3)ccc2[nH]1)C1CCC(F)(F)CC1 [Example 145]	IL-17A : IL-17RA binding (Homo sapiens, UniProt Q16552, K93Q)	pIC50	< 7.00
C[C@@H](NC(=O)CCC(F)(F)F)c1ccc2[nH]c([C@@H](NC(=O)[C@@H]3C[C@H]3C#N)C3CCC(F)(F)CC3)nc2c1 (relative stereo) [Example 104]	IL-17A : IL-17RA binding (Homo sapiens, UniProt Q16552, K93Q)	pIC50	< 7.00
Cn1nccc1C(=O)N[C@H](c1nc2cc(C(NC(=O)CCC(F)(F)F)C3CC3)ccc2[nH]1)C1CCC(F)(F)CC1 (single isomer, unassigned) [Example 54]	IL-17A : IL-17RA binding (Homo sapiens, UniProt Q16552, K93Q)	pIC50	< 7.00

Param item = C[C@@H](NC(=O)CCC(F)(F)F)c1ccc2[nH]c([C@@H](NC(=O)C3(C)CC3(F)F)C3CCC(F)(F)CC3)nc2c1 (relative stereo) [Example 109] ; retrieve measured pIC50.
< 7.00

Input CC(CC(=O)N[C@@H](c1ccc2[nH]c([C@H](COC(C)(C)C(F)(F)F)NC(=O)c3nonc3C3CC3)nc2c1)C1CC1)C(F)F (single isomer, unassigned) [Example 175]
> 7.30

These entries and their values trace back to patent US20240376085A1.
